# Test system: blackgrass (Alopecurus myosuroides)
# Assay notes: Test A1 postemergence, blackgrass
# Format: in vivo
# Reported conditions: Postemergence, 125 g ai/ha; 0 to 100 scale (0 no effect, 100 complete control); 10 days
Readout type: Plant response rating, Blackgrass
Give bare numbers.

Completed entries (count: 4):
Molecule | Plant response rating, Blackgrass
Cc1cc(C)c(C2=NOC(C(C)C)C2)cc1NS(=O)(=O)C(F)(F)F (centres unmarked) | 70
Cc1cc(C)c(N(COC(=O)C(C)(C)C)S(=O)(=O)C(F)(F)F)cc1N1CCC2(CCC(C)CC2)C1=O (centres unmarked) | 30
Cc1cc(C)c(N2CCC3(CCC(C)CC3)C2=O)cc1NS(=O)(=O)C(F)(F)F (centres unmarked) | 0
Cc1cc(C)c(N2Cc3cccc(C)c3C2=O)cc1NS(=O)(=O)Cl | 90

Consider the record given below.
Query string: # get_value(readout='Plant response rating, Blackgrass', item= `Cc1cc(C)c(N2Cc3cccc(Br)c3C2=O)cc1NS(=O)(=O)Cl` )
Result string: 40

* * *

# Tested on: goosegrass (Eleusine indica)
# Assay notes: Test A1 preemergence, goosegrass
# Assay type: in vivo
# Reported conditions: 31 g ai/ha, 0 to 100 scale (0 no effect, 100 complete control)
Readout type: Plant response rating, Goosegrass
One number for each entry.

Compound | Plant response rating, Goosegrass
COC(=O)OCN(c1cc(C2=NOC3CCCC23)c(C)cc1C)S(=O)(=O)C(F)(F)F (stereo not shown) [Compound 315] | 90
Cc1cc(C)c(N(COC(=O)C(C)(C)C)S(=O)(=O)C(F)(F)F)cc1C1=NOC2OCCC12 (stereo not shown) [Compound 352] | 90

Your task in this section: give Plant response rating, Goosegrass for each listed record.
1. Cc1cc(C)c(N(C(=O)OCC(C)C)S(=O)(=O)C(F)(F)F)cc1C1=NOC2CCCC12 (stereo not shown) [Compound 299]
2. Cc1c(NS(=O)(=O)C(F)(F)F)cc(C(=O)N2CC(C)OC(C)C2)c(C)c1C (stereo not shown) [Compound 328]

Result string:
[60, 40]

* * *

# Test system: ragweed (common ragweed, Ambrosia artemisiifolia)
# Assay notes: Test A postemergence, ragweed
# Format: in vivo
# Reported conditions: Postemergence, 31 g ai/ha; 0 to 100 scale (0 no effect, 100 complete control)
Readout type: Plant response rating, Ragweed
Numbers only.

Molecule | Reported value
COC1CCCN(C(=O)c2cc(N(C(=O)C(C)C)S(=O)(=O)C(F)(F)F)c(C)cc2C)C1 (centres unmarked) | 0
COC1CCCN(C(=O)c2cc(N(C(C)=O)S(=O)(=O)C(F)(F)F)c(C)cc2C)C1 (centres unmarked) | 30

Your task in this section: give Plant response rating, Ragweed for each listed record.
1. COC1CCCN(C(=O)c2cc(NS(=O)(=O)C(F)(F)F)c(C)c(F)c2C)C1 (centres unmarked)
2. Cc1cc(C(=O)N2CCOC(C)(C)C2)cc(NS(=O)(=O)C(F)(F)F)c1Cl
3. COC1CCCN(C(=O)c2cc(N(COC(C)=O)S(=O)(=O)C(F)(F)F)c(C)cc2C)C1 (centres unmarked)

Result string:
50
30
30

* * *

# Tested on: Ryegrass, Italian (Italian ryegrass, Lolium multiflorum)
# Assay notes: Test A postemergence, Ryegrass, Italian
# Type: in vivo
# Reported conditions: Postemergence, 31 g ai/ha; visual injury on 0 to 100 scale (0 no effect, 100 complete control), approx. 10 days
Readout type: Plant response rating, Ryegrass, Italian
One number for each entry.

Completed entries (count: 4):
Molecule | Plant response rating, Ryegrass, Italian
Cc1cc(C)c(C2=NOC3(C2)CC(C)CC(C)C3)cc1NS(=O)(=O)C(F)(F)F (single isomer, unassigned) [Compound 168] | 0
Cc1cc(C)c(C2=NOC3(C2)CC(C)CC(C)C3)cc1NS(=O)(=O)C(F)(F)F (single isomer, unassigned) [Compound 167] | 0
Cc1cc(Cl)c(NS(=O)(=O)C(F)(F)F)cc1C(=O)N1CCOCC1(C)C | 30
Cc1c(C(=O)N2CCOCC2)cc(N(S(=O)(=O)C(F)(F)F)S(=O)(=O)C(F)(F)F)c(C)c1F | 0

Consider the record given below.
Query string: Request body: readout Plant response rating, Ryegrass, Italian, system Ryegrass, Italian (Italian ryegrass, Lolium multiflorum), query Cc1cc(C)c(C2=NOC3CCCCC23)cc1NS(=O)(=O)C(F)(F)F (centres unmarked) . Return the value.
Result string: 0
